Quick record of pKi values for Prothrombin (Homo sapiens, UniProt P00734).
// pKi here means minus log10 of the molar concentration (mol/L)

Examples from the recorded data:
N=C(N)c1ccc([C@H]2[C@H]3C(=O)N(Cc4ccc(Cl)cc4)C(=O)[C@H]3[C@@H]3CCCN32)cc1
6.72
N=C(N)c1ccc([C@H]2[C@H]3C(=O)N(Cc4cccc(F)c4)C(=O)[C@H]3[C@@H]3CCCN32)cc1
6.44
N=C(N)c1ccc([C@H]2[C@H]3C(=O)N(Cc4ccc(F)cc4F)C(=O)[C@H]3[C@@H]3CCCN32)cc1
6.59
N=C(N)c1ccc([C@H]2[C@H]3C(=O)N(Cc4ccccc4F)C(=O)[C@H]3[C@@H]3CCCN32)cc1
6.30

# context switch: different compound, same pKi
// pKi lookup, key: N=C(N)c1ccc([C@H]2[C@H]3C(=O)N(Cc4cccc(F)c4F)C(=O)[C@H]3[C@@H]3CCCN32)cc1
6.31

###

Molecular target: 3-oxo-5-alpha-steroid 4-dehydrogenase 2 (Homo sapiens)
Assay type: cell-based, HEK293
parameter: IC50 (nM)
Please respond with the number in nM and leave the unit unwritten.

// IC50 lookup, key: CC(C)(C)NC(=O)[C@H]1CC[C@H]2[C@@H]3CC=C4C=C(F)CC[C@]4(C)[C@H]3CC[C@]12C
480

###

Test: physchem
Label no if pKa falls below 10; label yes in every other case.

NS(=O)(=O)C(F)c1ccccc1 (stereo not given)
no

Decide: pKa of NCc1cc(F)c(O)c(F)c1 >= 10?
no

Next record, please: NS(=O)(=O)C(F)(F)c1ccccc1 [PHENYLDIFLUOROMETHANESULFONAMIDE]
no

Next record, please: NS(=O)(=O)Cc1ccccc1 [PHENYLMETHANESULFONAMIDE]
yes

###

Target: 3-oxo-5-alpha-steroid 4-dehydrogenase 2 (Homo sapiens, UniProt P31213)
Sequence (P31213 whole entry): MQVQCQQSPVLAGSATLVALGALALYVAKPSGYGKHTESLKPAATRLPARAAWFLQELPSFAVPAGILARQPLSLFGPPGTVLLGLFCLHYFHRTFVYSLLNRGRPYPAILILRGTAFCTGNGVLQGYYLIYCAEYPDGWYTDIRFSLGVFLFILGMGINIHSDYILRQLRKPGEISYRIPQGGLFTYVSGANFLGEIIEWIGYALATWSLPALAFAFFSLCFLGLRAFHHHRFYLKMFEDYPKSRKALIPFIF
parameter: pIC50
// pIC50 here means minus log10 of the molar concentration (mol/L)

// pIC50 lookup, key: CC(C)(C)NC(=O)[C@H]1CC[C@H]2[C@@H]3CC[C@H]4NC(=O)C=C[C@]4(C)[C@H]3CC[C@]12C [FINASTERIDE]
7.24

###

Quick record of pKi values for Procathepsin L (Homo sapiens, UniProt P07711).
// pKi here means minus log10 of the molar concentration (mol/L)

Examples from the recorded data:
N#Cc1nc(N2CCOCC2)nc(N(Cc2c(F)cccc2F)C2CCCC2)n1
7.00
N#Cc1nc(N2CCOCC2)nc(N(Cc2ccc(F)cc2)C2CCCC2)n1
6.30

// pKi lookup, key: N#Cc1nc(N2CCOCC2)nc(N(Cc2ccncn2)C2CCCC2)n1
6.60

Next record, please: N#Cc1nc(N2CCOCC2)nc(N(Cc2ccc(F)cc2F)C2CCCC2)n1
6.90

###

Target: 3-oxo-5-alpha-steroid 4-dehydrogenase 1 (Rattus norvegicus)
Sequence (P24008 whole entry): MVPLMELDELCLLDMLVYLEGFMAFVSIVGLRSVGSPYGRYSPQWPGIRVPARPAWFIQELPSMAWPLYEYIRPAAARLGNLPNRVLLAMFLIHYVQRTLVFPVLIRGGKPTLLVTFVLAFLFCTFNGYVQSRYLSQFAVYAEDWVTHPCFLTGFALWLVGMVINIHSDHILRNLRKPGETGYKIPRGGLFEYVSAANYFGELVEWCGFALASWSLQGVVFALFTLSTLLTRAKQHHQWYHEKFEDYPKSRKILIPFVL
parameter: IC50 (nM)
Please respond with the number in nM and leave the unit unwritten.

Examples from the recorded data:
CC(NC(=O)[C@H]1CC[C@H]2[C@@H]3CC[C@H]4NC(=O)C=C[C@]4(C)[C@H]3CC[C@]12C)(c1ccccc1)C(F)(F)F (stereo partly drawn)
15
CC(C)(C)NC(=O)[C@H]1CC[C@H]2[C@@H]3CC[C@H]4NC(=O)C=C[C@]4(C)[C@H]3CC[C@]12C [FINASTERIDE]
30

# context switch: different compound, same IC50
// IC50 lookup, key: C[C@]12C=CC(=O)N[C@@H]1CC[C@@H]1[C@@H]2CC[C@]2(C)[C@@H](C(=O)NC(c3ccccc3)(C(F)(F)F)C(F)(F)F)CC[C@@H]12
34

###

Target: D(2) dopamine receptor (Homo sapiens) (UniProt P14416)
Sequence (P14416 whole entry): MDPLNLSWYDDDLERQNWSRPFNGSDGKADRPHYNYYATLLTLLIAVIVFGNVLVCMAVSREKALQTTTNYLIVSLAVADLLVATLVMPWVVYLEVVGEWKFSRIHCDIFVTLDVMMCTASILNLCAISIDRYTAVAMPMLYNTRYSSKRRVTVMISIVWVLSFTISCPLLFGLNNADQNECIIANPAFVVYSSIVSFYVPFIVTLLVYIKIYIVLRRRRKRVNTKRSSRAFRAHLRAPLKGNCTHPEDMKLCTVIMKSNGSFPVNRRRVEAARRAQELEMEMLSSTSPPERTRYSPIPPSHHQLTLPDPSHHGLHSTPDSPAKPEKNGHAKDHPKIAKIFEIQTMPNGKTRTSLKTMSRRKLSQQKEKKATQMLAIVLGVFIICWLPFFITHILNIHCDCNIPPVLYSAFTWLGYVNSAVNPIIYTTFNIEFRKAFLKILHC
parameter: KiH

c1ccc(CNCCOc2cccc3[nH]cnc23)cc1
9.8 nM
FC(F)(F)c1nc2c(OCCNCc3ccccc3)cccc2[nH]1
0.18 nM

# context switch: different molecule, same KiH
Provide the documented KiH with D(2) dopamine receptor (Homo sapiens) (UniProt P14416) as the system for Cc1nc2c(OCCNCc3ccccc3)cccc2[nH]1
4.4 nM

Where do the numbers come from? From ChEMBL document CHEMBL4371002.
